# Test system: human lung cancer strain NCI-H441;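 note: cell proliferation inhibition after four days measured by CellTiter-Glo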
Where a SMILES comes first, the peptide text is derived from it. Bridges are numbered along the chain shown (N, C = ends). [ ]: non-standard residue; d: D form. The star is where a group is joined. hPhe(3-Cl-4-CF3) = N[C@@H](CCc1ccc(C(F)(F)F)c(Cl)c1)C(=O)O; NPrPhe(4-CF3) = CCCN[C@@H](Cc1ccc(C(F)(F)F)cc1)C(=O)O; Morpholine(3S-CO) = O=C(O)[C@@H]1COCCN1; NMeGly(cPent) = CN[C@H](C(=O)O)C1CCCC1; NMeD = CN[C@@H](CC(=O)O)C(=O)O; NMeL = CN[C@@H](CC(C)C)C(=O)O; Morpholide = C1CN(*)CCO1; Ac5c = NC1(C(=O)O)CCCC1; Aze = O=C(O)[C@@H]1CCN1; Sar = CNCC(=O)O
Class (by IC50) -- low range: < 20 nM; mid range: ≥ 20 nM and < 60 nM; high range: ≥ 60 nM

{"Compound": "CCO[C@@H]1C[C@H]2C(=O)NC3(CCC3)C(=O)N(C)[C@@H](C3CCCC3)C(=O)N(C)[C@H](C(=O)N(C)C)CC(=O)N(C)[C@@H](CSC)C(=O)N[C@@H]([C@@H](C)CC)C(=O)N(C)CC(=O)N(C)[C@H]3C/C=C\\CCN(C3=O)[C@@H](CC3CCC(F)(F)CC3)C(=O)N(C)CC(=O)N[C@@H](CCc3cc(F)c(C(F)(F)F)c(F)c3)C(=O)N2C1 [PP1449]", "Tgt": "human lung cancer strain NCI-H441", "Cat": "mid range"}
{"Compound": "CCC[C@H]1C(=O)N[C@@H]([C@@H](C)CC)C(=O)N(C2CC2)CC(=O)N(C)[C@H]2C/C=C\\CCN(C2=O)[C@@H](Cc2ccc(C)cc2)C(=O)N(C)CC(=O)N[C@@H](CCc2ccc(C(F)(F)F)c(OC)c2)C(=O)N2C[C@@H](C)C[C@H]2C(=O)N(C)C2(CCC2)C(=O)N(C)[C@@H](C2CCCC2)C(=O)N(C)[C@H](C(=O)N(C)C)CC(=O)N1C [PP2366]", "Tgt": "human lung cancer strain NCI-H441", "Cat": "low range"}
{"Compound": "CCO[C@@H]1C[C@H]2C(=O)NC3(CCC3)C(=O)N(C)[C@@H](C3CCCC3)C(=O)N(C)[C@H](C(=O)N(C)C)CC(=O)N(C)[C@@H](Cc3ccc(C#N)cc3)C(=O)N[C@@H]([C@@H](C)CC)C(=O)N(C)CC(=O)N(C)[C@H]3CCCCCN(C3=O)[C@@H](Cc3ccc(C(F)(F)F)cc3)C(=O)N(C)CC(=O)N[C@@H](CCc3cc(F)c(C(F)(F)F)c(F)c3)C(=O)N2C1 [PP1173]", "Tgt": "human lung cancer strain NCI-H441", "Cat": "high range"}
{"Compound": "CCCN1C(=O)CN(C)C(=O)[C@@H]2CCN2C(=O)[C@H]([C@@H](C)CC)NC(=O)[C@H](CC(C)C)N(C)C(=O)C[C@@H](C(=O)N2CCOCC2)N(C)C(=O)[C@H](C2CCCC2)N(C)C(=O)C2(CCCC2)NC(=O)[C@@H]2COCCN2C(=O)[C@H](CCc2ccc(C(F)(F)F)c(Cl)c2)NC(=O)CN(C)C(=O)[C@@H]1Cc1ccc(C(F)(F)F)cc1 [PP0313] ([NMeL]I[Aze][Sar][NPrPhe(4-CF3)][Sar][hPhe(3-Cl-4-CF3)][Morpholine(3S-CO)][Ac5c][NMeGly(cPent)][NMeD]-Morpholide; lactam N-11)", "Tgt": "human lung cancer strain NCI-H441", "Cat": "mid range"}
{"Compound": "CCO[C@@H]1C[C@H]2C(=O)NC3(CCC3)C(=O)N(C)[C@@H](C(CC)CC)C(=O)N(C)[C@H](C(=O)N3CCCC3)CC(=O)N(C)[C@@H](COC)C(=O)N[C@@H]([C@@H](C)CC)C(=O)N(C)CC(=O)N(C)[C@H]3C/C=C\\CCN(C3=O)[C@@H](CC3CCCCC3)C(=O)N(C)CC(=O)N[C@@H](CCc3cc(F)c(C(F)(F)F)c(F)c3)C(=O)N2C1 [PP1438]", "Tgt": "human lung cancer strain NCI-H441", "Cat": "high range"}
{"Compound": "CCO[C@@H]1C[C@H]2C(=O)NC3(CCC3)C(=O)N(C)[C@@H](C3CCCC3)C(=O)N(C)[C@H](C(=O)N(C)C)CC(=O)N(C)[C@@H](CC(C)C)C(=O)N[C@@H]([C@@H](C)CC)C(=O)N(C)CC(=O)N(C)[C@H]3C/C=C\\CCN(C3=O)[C@@H](Cc3ccc(F)cc3C)C(=O)N(C)CC(=O)N[C@@H](CCc3ccc(Cl)c(Cl)c3)C(=O)N2C1 [PP1480]", "Tgt": "human lung cancer strain NCI-H441", "Cat": "high range"}
{"Compound": "CCO[C@@H]1C[C@H]2C(=O)NC3(CCC3)C(=O)N(C)[C@@H](C3CCCC3)C(=O)N(C)[C@H](C(=O)N3CCCC3)CC(=O)N(C)[C@@H](CC3CC3)C(=O)N[C@@H]([C@@H](C)CC)C(=O)N(C)CC(=O)N(C)[C@H]3C/C=C\\CCN(C3=O)[C@@H](Cc3ccc(C(F)(F)F)cc3)C(=O)N(C)CC(=O)N[C@@H](CCc3cc(F)c(C(F)(F)F)c(F)c3)C(=O)N2C1 [PP1296]", "Tgt": "human lung cancer strain NCI-H441", "Cat": "low range"}
{"Compound": "CCO[C@@H]1C[C@H]2C(=O)NC3(CCC3)C(=O)N(C)[C@@H](C3CCCC3)C(=O)N(C)[C@H](C(=O)N3CCOCC3)CC(=O)N(C)[C@@H](C)C(=O)N[C@@H]([C@@H](C)CC)C(=O)N(C)CC(=O)N(C)[C@H]3CCCCCN(C3=O)[C@@H](Cc3ccc(F)cc3)C(=O)N(C)CC(=O)N[C@@H](CCc3cc(F)c(C(F)(F)F)c(F)c3)C(=O)N2C1 [PP1175]", "Tgt": "human lung cancer strain NCI-H441", "Cat": "mid range"}
{"Compound": "CCO[C@@H]1C[C@H]2C(=O)NC3(CCCC3)C(=O)N(C)[C@@H](C3CCCC3)C(=O)N(C)[C@H](C(=O)N(C)C)CC(=O)N(C)[C@@H](CC3CC3)C(=O)N[C@@H]([C@@H](C)CC)C(=O)N(C)CC(=O)N(C)[C@H]3C[C@@H](C)[C@@H](C)CN(C3=O)[C@@H](Cc3ccc(C(F)(F)F)cc3)C(=O)N(C)CC(=O)N[C@@H](CCc3cc(F)c(C(F)(F)F)c(F)c3)C(=O)N2C1 [PP1356]", "Tgt": "human lung cancer strain NCI-H441", "Cat": "low range"}
{"Compound": "CCC[C@H]1C(=O)N[C@@H]([C@@H](C)CC)C(=O)N(C)CC(=O)N(C)[C@H]2C/C=C\\CCN(C2=O)[C@@H](Cc2ccc(C(F)(F)F)cc2)C(=O)N(C)CC(=O)N[C@@H](CCc2ccc(C(F)(F)F)c(OC)c2)C(=O)N2C[C@H](OCC)C[C@H]2C(=O)NC2(CC(C)(C)C2)C(=O)N(C)[C@@H](CC2CCC2)C(=O)N(C)[C@H](C(=O)N(C)C)CC(=O)N1C [PP2764]", "Tgt": "human lung cancer strain NCI-H441", "Cat": "mid range"}
{"Compound": "CCCO[C@H](C)[C@@H]1NC(=O)[C@H](COCC)N(C)C(=O)C[C@@H](C(=O)N(C)CC)N(C)C(=O)[C@H](C2CCCC2)N(C)C(=O)C2(CC(C)(C)C2)NC(=O)[C@@H]2C[C@H](C)CN2C(=O)[C@H](CCc2cc(F)c(C(F)(F)F)c(F)c2)NC(=O)CN(C)C(=O)[C@H](Cc2ccc(C)cc2)N2CC/C=C\\C[C@@H](C2=O)N(C)C(=O)CN(C)C1=O [PP2426]", "Tgt": "human lung cancer strain NCI-H441", "Cat": "mid range"}
